- protocol: Oral bioavailability in rat
- Format: ADME, organism-based
- run_conditions: in vivo
observable: bioavailability (%)
Please state the figure in %; there is no need to write the unit.

Please look up its bioavailability: COc1cc2c(cc1OC)[C@H](Cc1c[nH]c3c(Cl)cccc13)N(C=O)CC2
0.75

* * *

- protocol: Apparent permeability of compound in human Caco2 cells from basal to apical
- Assay type: ADME, cell-based
- run_conditions: Caco-2
observable: Papp B→A (×10⁻⁶ cm/s)
Please state the figure in ×10⁻⁶ cm/s; there is no need to write the unit.

Please look up its Papp B→A: COc1cc2c(cc1OC)[C@H](Cc1c[nH]c3c(Cl)cccc13)N(C=O)CC2
15.1

Please look up its Papp B→A: COc1cc2c(cc1OC)[C@H](Cc1c[nH]c3ccccc13)N(C=O)CC2
21.7

* * *

- protocol: Permeability in human Caco2 cells assessed as compound recovery from apical to basal
- Format: ADME, cell-based
- run_conditions: Caco-2, read-out: permeability
observable: recovery
Answer with the number, then the unit.

Please look up its recovery: COc1cc2c(cc1OC)[C@H](Cc1c[nH]c3c(Cl)cccc13)N(C=O)CC2
108%

Please look up its recovery: COc1cc2c(cc1OC)[C@H](Cc1c[nH]c3ccccc13)N(C=O)CC2
100%

* * *

- protocol: Apparent permeability of compound in human Caco2 cells from apical to basal
- Assay type: ADME, cell-based
- run_conditions: Caco-2
observable: Papp A→B
Answer with the number, then the unit.

Please look up its Papp A→B: COc1cc2c(cc1OC)[C@H](Cc1c[nH]c3ccccc13)N(C=O)CC2
148 nm/s

Please look up its Papp A→B: COc1cc2c(cc1OC)[C@H](Cc1c[nH]c3c(Cl)cccc13)N(C=O)CC2
346 nm/s

* * *

Please provide measured IC50 for the entries that follow.
- Tested on: RAW264.7
- protocol: cells
- run_conditions: Mus musculus, RAW264.7, 24 h

Please look up its IC50: CCOc1cc2c(cc1OC)CCN(C(=O)COC)[C@H]2Cc1c[nH]c2ccccc12
> 50 µM

Please look up its IC50: CCOc1cc2c(cc1OC)CCN(C(=O)CS(C)(=O)=O)[C@H]2Cc1c[nH]c2ccccc12
> 50 µM

Please look up its IC50: COc1cc2c(cc1OC)C(Cc1c[nH]c3ccccc13)N(C(=O)N1CCOCC1)CC2 (racemic)
> 50 µM

Please look up its IC50: CCOc1cc2c(cc1OC)CCN(C(C)=O)[C@H]2Cc1c[nH]c2ccccc12
> 50 µM

Please look up its IC50: COc1cc2c(cc1OC)[C@H](Cc1c[nH]c3ccccc13)N(C(=O)CS(C)(=O)=O)CC2
> 50 µM

Please look up its IC50: COc1cc2c(cc1OC)C(Cc1c[nH]c3ccccc13)N(CC1CCOCC1)CC2 (racemic)
> 50 µM

Please look up its IC50: COc1cc2c(cc1OC)C(Cc1c[nH]c3ccccc13)N(C(=O)C(F)(F)F)CC2 (racemic)
> 50 µM

Please look up its IC50: COc1cc2c(cc1OC)[C@H](Cc1c[nH]c3ccc(C)cc13)N(C=O)CC2
> 50 µM

Please look up its IC50: COc1cc2c(cc1OC)[C@H](Cc1cc3ccccc3[nH]1)N(C=O)CC2
> 50 µM

Please look up its IC50: CCOc1cc2c(cc1OC)CCN(C(=O)OC)[C@H]2Cc1c[nH]c2ccccc12
> 50 µM

Please look up its IC50: COc1ccc2[nH]c(C)c(C[C@H]3c4cc(OC)c(OC)cc4CCN3C=O)c2c1
> 50 µM

Please look up its IC50: CCOc1cc2c(cc1OC)CCN(C=O)[C@H]2Cc1c(C)[nH]c2ccc(OC)cc12
> 50 µM

Please look up its IC50: COc1cc2c(cc1OCc1ccccc1)C(Cc1c[nH]c3ccccc13)N(C=O)CC2 (racemic)
36.7 µM

Please look up its IC50: COc1cc2c(cc1OC)[C@H](Cc1c[nH]c3ccc(Br)cc13)N(C=O)CC2
29.2 µM

Please look up its IC50: COc1cc2c(cc1OC)[C@H](Cc1c[nH]c3ccccc13)N(C(=O)C1CCOCC1)CC2
> 50 µM

Please look up its IC50: COc1cc2c(cc1OC)[C@H](Cc1cn(C)c3ccccc13)N(C=O)CC2 (racemic)
> 50 µM

Please look up its IC50: COc1cc2c(cc1OC)[C@H](Cc1c[nH]c3ccc(-c4ccccc4)cc13)N(C=O)CC2
13.8 µM

Please look up its IC50: COC(=O)CN1CCc2cc(OC)c(OC)cc2C1Cc1c[nH]c2ccccc12 (racemic)
> 50 µM

Please look up its IC50: COc1cc2c(cc1OC)[C@H](Cc1c[nH]c3ccccc13)N(C(=O)N1CCOCC1)CC2
> 50 µM

Please look up its IC50: CCOc1cc2c(cc1OC)CCN(C=O)[C@H]2Cc1c[nH]c2ccc(C)cc12
> 50 µM

* * *

- protocol: cells
- run_conditions: Homo sapiens, PBMC, 21 h, read-out: INH
Please provide measured inhibition at 1 µM for the entries that follow.
Please state the figure in %; there is no need to write the unit.

Please look up its inhibition at 1 µM: CCOc1cc2c(cc1OC)CCN(C=O)[C@H]2Cc1c[nH]c2cccc(Cl)c12
22.8

Please look up its inhibition at 1 µM: CCOc1cc2c(cc1OC)CCN(C=O)[C@H]2Cc1c[nH]c2c(Cl)cccc12
21.5

Please look up its inhibition at 1 µM: COc1cc2c(cc1OC)[C@H](Cc1c[nH]c3cccc(Cl)c13)N(C=O)CC2
23.3

Please look up its inhibition at 1 µM: COc1cc2c(cc1OCc1ccccc1)C(Cc1c[nH]c3ccccc13)N(C=O)CC2 (racemic)
-6.2

Please look up its inhibition at 1 µM: COc1cc2c(cc1OC)[C@H](Cc1c[nH]c3ccc(Br)cc13)N(C=O)CC2
16.7

* * *

- protocol: Permeability in human Caco-2 cells assessed as absorbed fraction
- Assay type: ADME, cell-based
- run_conditions: read-out: Fabs
observable: Fa

Please look up its Fa: COc1cc2c(cc1OC)[C@H](Cc1c[nH]c3ccccc13)N(C=O)CC2
100%

Please look up its Fa: COc1cc2c(cc1OC)[C@H](Cc1c[nH]c3c(Cl)cccc13)N(C=O)CC2
100%

* * *

Please provide measured recovery for the entries that follow.
- protocol: Permeability in human Caco2 cells assessed as compound recovery from basal to apical
- Format: ADME, cell-based
- run_conditions: Caco-2, read-out: permeability
Please state the figure in %; there is no need to write the unit.

Please look up its recovery: COc1cc2c(cc1OC)[C@H](Cc1c[nH]c3ccccc13)N(C=O)CC2
90

Please look up its recovery: COc1cc2c(cc1OC)[C@H](Cc1c[nH]c3c(Cl)cccc13)N(C=O)CC2
85
